Data credit: patent US4847241A

Test system: Writhing Mouse
protocol: Writhing Assay (phenylbenzoquinone)
Assay type: in vivo, mice
runParameters: screening dose 10 mg/kg p.o. (intragastric), 30 min before phenylbenzoquinone i.p.; Active refers to the effect of the screening dose
assayMetric: Writhing Mouse, Oral

>  <compound>
C[C@@H](NC(=O)OCc1ccccc1)C(=O)NC1Cc2ccccc2C1 [Example 20]

>  <assayMetric>
Writhing Mouse, Oral

>  <testResult>
Inactive

$$$$
>  <compound>
Cc1cc(O)cc(C)c1C[C@H](N)C(=O)N[C@H](C)C(=O)N1CCc2ccccc2C1.Cl (single isomer, unassigned) [Example 35]

>  <assayMetric>
Writhing Mouse, Oral

>  <testResult>
Active

$$$$
>  <compound>
Cc1cc(O)cc(C)c1C[C@H](N)C(=O)N[C@H](C)C(=O)NCCSc1ccccc1.Cl [Example 109]

>  <assayMetric>
Writhing Mouse, Oral

>  <testResult>
Inactive

$$$$
>  <compound>
Cc1cc(O)cc(C)c1C[C@H](N)C(=O)N[C@H](C)C(=O)NCCc1cccs1.Cl [Example 39]

>  <assayMetric>
Writhing Mouse, Oral

>  <testResult>
Inactive

$$$$
>  <compound>
Cc1cc(O)cc(C)c1CC(N)C(=O)N[C@H](C)C(=O)N1CCCc2ccccc21.Cl (some centres unmarked) [Example 30]

>  <assayMetric>
Writhing Mouse, Oral

>  <testResult>
Inactive

$$$$
>  <compound>
Cc1cc(O)cc(C)c1C[C@H](N)C(=O)N[C@H](C)C(=O)NCCC(c1ccccc1)c1ccccc1.Cl [Example 73]

>  <assayMetric>
Writhing Mouse, Oral

>  <testResult>
Inactive

$$$$
>  <compound>
C[C@@H](NC(=O)OCc1ccccc1)C(=O)N1CCCc2ccccc21 [Example 25]

>  <assayMetric>
Writhing Mouse, Oral

>  <testResult>
Inactive

$$$$
>  <compound>
Cc1cc(O)cc(C)c1C[C@H](N)C(=O)N[C@@H](C)C(=O)N1CCCc2ccccc21.Cl (relative stereo) [Example 29]

>  <assayMetric>
Writhing Mouse, Oral

>  <testResult>
Inactive

$$$$
>  <compound>
Cc1cc(O)cc(C)c1CC(NC(=O)OC(C)(C)C)C(=O)N[C@H](C)C(=O)NCCSc1ccccc1 (mixture of isomers) [Example 108]

>  <assayMetric>
Writhing Mouse, Oral

>  <testResult>
Inactive

$$$$
>  <compound>
C[C@@H](N)C(=O)NCCCc1cccs1 [Example 44]

>  <assayMetric>
Writhing Mouse, Oral

>  <testResult>
Active

$$$$
>  <compound>
Cc1cc(O)cc(C)c1CC(NC(=O)OC(C)(C)C)C(=O)N[C@H](C)C(=O)NCCOc1ccccc1 (mixture of isomers) [Example 115]

>  <assayMetric>
Writhing Mouse, Oral

>  <testResult>
Active

$$$$
>  <compound>
Cc1cc(O)cc(C)c1C[C@H](N)C(=O)N[C@H](C)C(=O)NCCCc1cccs1.Cl (single isomer, unassigned) [Example 46]

>  <assayMetric>
Writhing Mouse, Oral

>  <testResult>
Inactive

$$$$
>  <compound>
COc1ccc(CCCNC(=O)[C@@H](C)N)cc1 [Example 60]

>  <assayMetric>
Writhing Mouse, Oral

>  <testResult>
Active

$$$$
>  <compound>
C[C@@H](N)C(=O)NC1Cc2ccccc2C1 [Example 21]

>  <assayMetric>
Writhing Mouse, Oral

>  <testResult>
Inactive

$$$$
